Attribution: PubChem BioAssay (EPA / NIEHS)

# Read-out: CYP4A11 (gene 1579)
# Experiment Summary: LTEA_HepaRG_CYP4A11: Life Technologies and Expression Analysis (LTEA) Assay for CYP4A11 using HepaRG (AID 2283486)
# Experimental Parameters: mRNA level, 48 h; actives raise or lower the signal
Active and inactive are the calls of the source. Rule for the calls: active = hit-call score of the fitted dose curve at least 0.9, where 1 is the maximum; inactive = score below 0.9.
One label from this list, please: yes for active, no for inactive

Completed entries (count: 6):
# Molecule, Class Assignment
rows = [
    ("CCNc1nc(Cl)nc(NC(C)(C)C)n1", "yes"),
    ("CC(Cc1ccc(OCC(=O)O)cc1)NCC(O)c1csc(C(F)(F)F)n1 (stereo unspecified)", "no"),
    ("ClC(Cl)c1ccccc1", "no"),
    ("CCC(C)(C)c1ccc(O)cc1", "no"),
    ("CN(C)C(=O)Cl", "no"),
    ("Nc1ccc2ccccc2c1", "no"),
]

[in] Hi team, can someone confirm the assay call for "Cc1cccc(N)c1" ?
[out] no

[in] Hi team, can someone confirm the assay call for "CCOP(=S)(OCC)SCSCC" ?
[out] no

----------
# Read-out: Thyroid Hormone Responsive (THRSP), THRSP (gene 7069)
# Experiment Summary: LTEA_HepaRG_THRSP: Life Technologies and Expression Analysis (LTEA) Assay for Thyroid Hormone Responsive (THRSP) using HepaRG (AID 2283536)
# Experimental Parameters: mRNA level, 48 h; actives raise or lower the signal
Active and inactive are the calls of the source. The calls were made as follows: active = hit-call score of the fitted dose curve at least 0.9, where 1 is the maximum; inactive = score below 0.9.
Parameter: AC50

Examples with their reported AC50 follow.
# Compound, Parameter, Reported Result
rows = [
    ("CCOP(=S)(OCC)SCSCC", "AC50", "inactive"),
    ("CCOc1ccc(C(C)(C)COCc2cccc(Oc3ccccc3)c2)cc1", "AC50", "inactive"),
    ("CCC1(c2ccccc2)C(=O)N=C(O)NC1=O (stereo not given)", "AC50", "inactive"),
    ("c1nc[nH]n1", "AC50", "inactive"),
    ("Nc1ccc(Cl)cc1", "AC50", "inactive"),
    ("CN(C)C(=O)Cl", "AC50", "inactive"),
]

Can you give me AC50 for all of these, one by one?
1. O=C(O)C(Cl)Cl
2. CCCCN(CCCC)SN(C)C(=O)Oc1cccc2c1OC(C)(C)C2
3. Nc1ccc2ccccc2c1

[out]
inactive
inactive
9.29 µM (active)

Can you give me AC50 for all of these, one by one?
1. ClC(Cl)(Cl)c1ccccc1
2. CCCCN(CCCC)N=O
3. CCCCCCCc1ccc(O)cc1
4. CC(Cc1ccc(OCC(=O)O)cc1)NCC(O)c1csc(C(F)(F)F)n1 (stereo not given)
5. c1ccc2c(c1)Nc1ccccc1S2
6. Cc1ccc(O)cc1C

[out]
inactive
inactive
inactive
inactive
32.5 µM (active)
inactive

----------
# Target Under Test: CCAAT/enhancer-binding protein beta (Homo sapiens)
# Experiment Summary: ATG_C_EBP_CIS: Attagene CIS-FACTORIAL HepG2 Assay for human CCAAT/Enhancer Binding Protein (C/EBP) beta (AID 2282927)
# Experimental Parameters: HepG2 Attagene cis-factorial transcription factor reporter; actives raise or lower the signal
Activity calls are given as the source filed them. The calls were made as follows: active = hit-call score of the fitted dose curve at least 0.9, where 1 is the maximum; inactive = score below 0.9.
One label from this list, please: true for active, false for inactive

Completed entries (count: 2):
# Compound, Target Under Test, Class Assignment
rows = [
    ("CC(O)C(F)(F)C(F)(F)F (centres undefined)", "CCAAT/enhancer-binding protein beta (Homo sapiens)", "false"),
    ("CC1(C)CN=C(NN=C(/C=C/c2ccc(C(F)(F)F)cc2)/C=C/c2ccc(C(F)(F)F)cc2)NC1", "CCAAT/enhancer-binding protein beta (Homo sapiens)", "true"),
]

[in] Hi team, can someone confirm the assay call for "CC(C)Nc1ccc(Nc2ccccc2)cc1" ?
[out] false
